target: unphosphorylated-BTK kinase domain (UP-BTK), GST-tagged human BTK (389-659aa) (Homo sapiens (Human), UniProt Q06187); assay: BTK kinase Lanthascreen binding assay; conditions: pIC50 = negative log of the IC50 in molar; 60 minutes incubation, 50 nM Tracer 236
Sequence (Q06187 389-659): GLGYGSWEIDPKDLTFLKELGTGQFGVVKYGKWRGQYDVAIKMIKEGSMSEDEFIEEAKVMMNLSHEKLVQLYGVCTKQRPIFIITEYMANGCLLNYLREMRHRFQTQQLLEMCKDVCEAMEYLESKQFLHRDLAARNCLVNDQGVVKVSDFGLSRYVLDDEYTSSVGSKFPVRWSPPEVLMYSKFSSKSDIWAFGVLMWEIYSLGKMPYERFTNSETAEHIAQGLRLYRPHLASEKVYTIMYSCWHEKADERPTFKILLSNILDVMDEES
Overview of recorded BTK_I_binding pIC50 for various compounds
Reported Property: BTK_I_binding pIC50

{"columns": ["Mol", "Numeric Readout"],
 "data": [
  ["C=CC(=O)N1CCC[C@@H](NC(=O)c2sc3nccc4c3c2NC(=O)N4c2ccc(OCC)cc2C)C1", 7.4],
  ["C=CC(=O)N1C[C@@H](O)[C@@H](NC(=O)c2sc3nccc4c3c2NC(=O)N4c2ccc(Oc3ccccc3)cc2C)C1", 7.6],
  ["Cc1cc(Oc2ccccc2)ccc1N1C(=O)Nc2c(C(=O)N[C@@H]3CCCN(C(=O)[C@H]4CCN(C)C4)C3)sc3nccc1c23", 7.2],
  ["COCCC(=O)N1CC(NC(=O)c2sc3nccc4c3c2NC(=O)N4c2ccc(Oc3ccccc3)cc2C)C1", 6.5]
]}
